PROTOCOL_DETAILS: Pharmacokinetic assay in Balb/c mice (plasma and brain tissue)
Assay type: in vivo
RUN_CONDITIONS: mouse, po; plasma, 5 mg/kg p.o., male Balb/c mice; read-out: Peak time tmax
READOUT_LABEL: Tmax

>>> measured_result("C[C@@]1(O)CC[C@H]2[C@H](CC[C@@H]3[C@@H]2CC[C@@]2(C)[C@H]3[C@@H]3C[C@@H]3[C@@H]2C(=O)Cn2ccc(C#N)n2)C1")
"30 min"
>>> measured_result("CC[C@@H]1C[C@H](C(=O)Cn2nccn2)[C@@]2(C)CC[C@H]3[C@@H](CC[C@@H]4C[C@](C)(O)CC[C@@H]43)[C@H]12")
"30 min"
>>> measured_result("C[C@@]1(O)CC[C@H]2[C@H](CC[C@@H]3[C@@H]2CC[C@@]2(C)[C@H]3[C@H](C3CC3)C[C@@H]2C(=O)Cn2nc(C#N)cc2C#N)C1")
"30 min"
>>> measured_result("C[C@@H]1C[C@H](C(=O)Cn2nc(C#N)cc2C#N)[C@@]2(C)CC[C@H]3[C@@H](CC[C@@H]4C[C@](C)(O)CC[C@@H]43)[C@H]12")
"120 min"
>>> measured_result("C[C@@]1(O)CC[C@H]2[C@H](CC[C@@H]3[C@@H]2CC[C@@]2(C)[C@H]3[C@H](C3CC3)C[C@@H]2C(=O)Cn2ccc(C#N)n2)C1")
"30 min"
>>> measured_result("C[C@@]1(O)CC[C@H]2[C@H](CC[C@@H]3[C@@H]2CC[C@@]2(C)[C@H]3[C@H](C3CC3)C[C@@H]2C(=O)Cn2nccn2)C1")
"30 min"
>>> measured_result("CC[C@@H]1C[C@H](C(=O)Cn2ccc(C(F)(F)F)n2)[C@@]2(C)CC[C@H]3[C@@H](CC[C@@H]4C[C@](C)(O)CC[C@@H]43)[C@H]12")
"30 min"
>>> measured_result("C[C@@H]1C[C@H](C(=O)Cn2cc(C(F)(F)F)cn2)[C@@]2(C)CC[C@H]3[C@@H](CC[C@@H]4C[C@](C)(O)CC[C@@H]43)[C@H]12")
"30 min"
>>> measured_result("C[C@@]1(O)CC[C@H]2[C@H](CC[C@@H]3[C@@H]2CC[C@]2(C)C(C(=O)Cn4cc(C#N)cn4)C[C@@H](C4CC4)[C@@H]32)C1 (stereo partly shown)")
"60 min"
>>> measured_result("C[C@@H]1C[C@H](C(=O)Cn2nccn2)[C@@]2(C)CC[C@H]3[C@@H](CC[C@@H]4C[C@](C)(O)CC[C@@H]43)[C@H]12")
"30 min"

====

PROTOCOL_DETAILS: Pharmacokinetic assay in Balb/c mice (plasma and brain tissue)
Format: in vivo
RUN_CONDITIONS: mouse, po; brain tissue, 5 mg/kg p.o., male Balb/c mice; read-out: Half-life t1/2 (converted)
READOUT_LABEL: half-life (h)

>>> measured_result("C[C@@H]1C[C@H](C(=O)Cn2ccc(C#N)n2)[C@@]2(C)CC[C@H]3[C@@H](CC[C@@H]4C[C@](C)(O)CC[C@@H]43)[C@H]12 [Example 60]")
2.37
>>> measured_result("C[C@@]1(O)CC[C@H]2[C@H](CC[C@@H]3[C@@H]2CC[C@]2(C)C(C(=O)Cn4cc(C#N)cn4)C[C@@H](C4CC4)[C@@H]32)C1 (some centres unmarked) [Example 71]")
2
>>> measured_result("C[C@@H]1C[C@H](C(=O)Cn2nccn2)[C@@]2(C)CC[C@H]3[C@@H](CC[C@@H]4C[C@](C)(O)CC[C@@H]43)[C@H]12 [Example 61]")
3.95
>>> measured_result("C[C@@H]1C[C@H](C(=O)Cn2nc(C#N)cc2C#N)[C@@]2(C)CC[C@H]3[C@@H](CC[C@@H]4C[C@](C)(O)CC[C@@H]43)[C@H]12 [Example 135]")
2.82
>>> measured_result("C[C@@]1(O)CC[C@H]2[C@H](CC[C@@H]3[C@@H]2CC[C@@]2(C)[C@H]3[C@@H]3C[C@@H]3[C@@H]2C(=O)Cn2ncnn2)C1 [Example 9]")
0.5

These data points were gathered from patent US12139508B2.
